Data provenance is patent US20210246166A1.

- EXPERIMENTAL_SYSTEM: T1, recombinant human MASP1 active protease (amino acids 297-699, C-terminal His Tag) (human, UniProt P48740 297-699)
- T1 sequence: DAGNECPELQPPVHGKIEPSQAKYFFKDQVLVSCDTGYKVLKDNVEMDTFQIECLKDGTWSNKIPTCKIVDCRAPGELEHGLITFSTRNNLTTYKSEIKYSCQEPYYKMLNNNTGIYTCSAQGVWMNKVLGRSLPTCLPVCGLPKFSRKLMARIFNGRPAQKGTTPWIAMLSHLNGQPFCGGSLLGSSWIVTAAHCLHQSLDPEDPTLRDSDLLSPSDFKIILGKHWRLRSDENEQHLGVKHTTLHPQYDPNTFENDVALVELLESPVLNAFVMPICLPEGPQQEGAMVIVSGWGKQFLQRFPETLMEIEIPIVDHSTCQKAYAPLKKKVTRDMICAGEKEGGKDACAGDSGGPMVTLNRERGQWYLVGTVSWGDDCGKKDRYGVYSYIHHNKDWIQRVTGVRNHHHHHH
- EXPERIMENT: cell-based or functional assay
Bridge positions count the residues as written; N and C are the ends. Square brackets hold non-standard residues; d marks the D form. Ends that are not written are not given here. Oic = O=C(O)[C@@H]1C[C@@H]2CCCC[C@@H]2N1; tBuAla = CC(C)(C)C[C@H](N)C(=O)O; Pen = CC(C)(S)[C@H](N)C(=O)O; NMeC = CN[C@@H](CS)C(=O)O; Orn = NCCC[C@H](N)C(=O)O
METRIC_NAME: human MASP1 IC50 (nM)

>  <BINDER>
[Orn]ICSRSLP[Oic]I[Pen]IPD-NH2 (disulfide 3-11; N-terminus assumed; SMILES CC[C@H](C)[C@H](NC(=O)[C@@H](N)CCCN)C(=O)N[C@H]1CSSC(C)(C)[C@@H](C(=O)N[C@H](C(=O)N2CCC[C@H]2C(=O)N[C@@H](CC(=O)O)C(N)=O)[C@@H](C)CC)NC(=O)[C@H]([C@@H](C)CC)NC(=O)[C@@H]2C[C@@H]3CCCC[C@@H]3N2C(=O)[C@@H]2CCCN2C(=O)[C@H](CC(C)C)NC(=O)[C@H](CO)NC(=O)[C@H](CCCNC(=N)N)NC(=O)[C@H](CO)NC1=O) [(Orn)-IC+SRSLP-(Oic)-I-(Pen)+IPD-NH2]

>  <METRIC_NAME>
human MASP1 IC50

>  <EXPERIMENTAL_RESULT>
2

$$$$
>  <BINDER>
TICSRS[tBuAla]PPI[NMeC]I-NH2 (disulfide 3-11; N-terminus assumed; SMILES CC[C@H](C)[C@H](NC(=O)[C@@H]1CSSC[C@H](NC(=O)[C@@H](NC(=O)[C@@H](N)[C@@H](C)O)[C@@H](C)CC)C(=O)N[C@@H](CO)C(=O)N[C@@H](CCCNC(=N)N)C(=O)N[C@@H](CO)C(=O)N[C@@H](CC(C)(C)C)C(=O)N2CCC[C@H]2C(=O)N2CCC[C@H]2C(=O)N[C@@H]([C@@H](C)CC)C(=O)N1C)C(N)=O) [TIC+SRS-((tBu)A)-PPI-((N-Me)C)+I-NH2]

>  <METRIC_NAME>
human MASP1 IC50

>  <EXPERIMENTAL_RESULT>
2

$$$$
>  <BINDER>
[dA]ICSRS[tBuAla]PPI[Pen]IPD-NH2 (disulfide 3-11; N-terminus assumed; SMILES CC[C@H](C)[C@H](NC(=O)[C@@H](C)N)C(=O)N[C@H]1CSSC(C)(C)[C@@H](C(=O)N[C@H](C(=O)N2CCC[C@H]2C(=O)N[C@@H](CC(=O)O)C(N)=O)[C@@H](C)CC)NC(=O)[C@H]([C@@H](C)CC)NC(=O)[C@@H]2CCCN2C(=O)[C@@H]2CCCN2C(=O)[C@H](CC(C)(C)C)NC(=O)[C@H](CO)NC(=O)[C@H](CCCNC(=N)N)NC(=O)[C@H](CO)NC1=O) [aIC+SRS-((tBu)A)-PPI-(Pen)+IPD-NH2]

>  <METRIC_NAME>
human MASP1 IC50

>  <EXPERIMENTAL_RESULT>
2

$$$$
